# assay-method-text: chemical genetic growth profiling, strain panel (AID 1159580);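 also: tested at 20 µM; growth read once vehicle control cultures reached saturation at 30 °C; 1 = growth at the plate median or of vehicle wells; lower values mean less growth of the strain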
# run-parameters: S. cerevisiae deletion strains, growth OD, locus YNL209W, strain ssb2, active compounds read low
About 2,000 (36%) of roughly 5,500 compounds were called active. Another 18% or so got no clear call; they are omitted. The list shows a part of the results.
Please provide measured normalized growth for the entries that follow.
Answers are plain numbers.

Consider the reported normalized growth for these molecules:
> print(dat)
                                    molecule  result
 1     CC(C)=CCC/C(C)=C/COc1ccc2ccc(=O)oc2c1   0.983
 2                COc1cc2ccc(=O)oc2c(OC)c1OC   0.976
 3  COC(=O)C1=CO[C@@H](O[C@@H]2O[C@H](CO)[C@@H](O)[C@H](O)[C@H]2O)[C@@H]2[C@@H](C)[C@@H](O)C[C@H]12       1
 4  Cc1c(N(C)CS(=O)(=O)O)c(=O)n(-c2ccccc2)n1C    1.02
 5            CN1CCN(C(c2ccccc2)c2ccccc2)CC1   0.978
 6  CSCCC(NC=O)C(=O)NC(CC(C)C)C(=O)NC(Cc1ccccc1)C(=O)O (centres undefined)    1.01
 7                COc1cc(OC)c(C(C)=O)c(O)c1C    0.96
 8  O=c1cc(-c2ccc(O)cc2)oc2cc(O[C@@H]3O[C@H](CO)[C@@H](O)[C@H](O)[C@H]3O[C@@H]3OC[C@](O)(CO)[C@H]3O)cc(O)c12    1.01
 9   Cn1cnc([N+](=O)[O-])c1Sc1ncnc2nc[nH]c12    1.04
10                     O=c1[nH]cnc2nc[nH]c12    1.02

Please look at the items below and tell me normalized growth for each one, in order.
1. COc1c(O)cc(O)cc1O
2. CC(C(=O)O)c1ccc(N2Cc3ccccc3C2=O)cc1 (centres undefined)
3. COc1cc2ccc(=O)oc2c2ccoc12
4. CC(C)=CCOc1cc2oc(=O)ccc2cc1O
5. CC(=O)O[C@@H]1CC2C(C)(C)[C@H](O)C[C@H](O)[C@]2(C)C2CC[C@@]3(C)C(=CC(=O)O[C@H]3c3ccoc3)[C@@]21C (some centres undefined)
6. CCOc1ccc(Cc2nccc3cc(OCC)c(OCC)cc23)cc1OCC

1. 1.02
2. 0.973
3. 0.919
4. 0.971
5. 0.968
6. 0.98

Give normalized growth for each of the items listed below.
1. N#C/C(=C\c1ccc(O)cc1)C(=O)O
2. Fc1ccc(C(c2ccc(F)cc2)N2CCN(C/C=C/c3ccccc3)CC2)cc1

[0.997, 0.573]

* * *

# assay-method-text: chemical genetic growth profiling, strain panel (AID 1159580);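 also: tested at 20 µM; growth read once vehicle control cultures reached saturation at 30 °C; 1 = growth at the plate median or of vehicle wells; lower values mean less growth of the strain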
# run-parameters: S. cerevisiae deletion strains, growth OD, locus YBR135W, strain CKS1, active compounds read low
Among all 5,500 compounds or so, about 2,000 (36%) were called active. Roughly 18% stayed inconclusive and do not appear here. The list shows a part of the results.
observable: normalized growth
Answers are plain numbers.

> print(dat)
                                   molecule  result
1    O=C1CSC(=Nc2cc(Cl)cc(Cl)c2)N1Cc1cccnc1   0.995
2  O=C(N/N=C\c1cc(Cl)cc(Cl)c1O)c1ccccc1Oc1ccccc1   0.981
3  Oc1ccc(-n2nnnc2SCc2ccc(OC(F)(F)F)cc2)cc1   0.979
4                 COc1cc(OC)cc(/C(N)=N\O)c1   0.986
5  FC(F)(F)c1ccc(NC(=S)Nc2ccc(C(F)(F)F)cc2Cl)c(Cl)c1   0.955
6     Nc1ccccc1C(=O)N/N=C\c1cc(Cl)cc(Cl)c1O    0.97
7  CN(NC(=S)Nc1cc(Cl)ccc1Cl)c1ccc(C(F)(F)F)cc1[N+](=O)[O-]   0.982
8     N/C(=N/OC(=O)c1ccccc1Cl)c1ccc2nonc2c1   0.962

// batch mode: one normalized growth value per listed entry
1. O=C1OC(Nc2ccccc2SCc2ccccc2Cl)c2ccccc21 (stereo unspecified)
2. CC(=O)Oc1ccc2c(=O)c(Oc3ccc(Cl)cc3)c(C)oc2c1
3. CCOC(=O)C(NC(C)=O)(Nc1ccc(F)c(Cl)c1)C(F)(F)F (stereo unspecified)

[0.97, 0.968, 0.983]
